Where do the numbers come from? From ChEMBL document CHEMBL4689842.

Tested on: HEK-293T
ASSAY_METHOD_TEXT: Multiplex assay against HEK293T
Format: toxicity, cell-based
TEST_SETTINGS: human, 24 h, 10 µM, compound concentration 10 uM, replicate 1
Known Population Healthy Nuclei (%) of a selection of molecules

COc1cccc([C@@H](C)NCCCc2ccccc2Cl)c1.Cl [TECALCET HYDROCHLORIDE]: 36%
CN1CCCC(n2nc(Cc3ccc(Cl)cc3)c3ccccc3c2=O)CC1.Cl (stereo unspecified) [AZELASTINE HYDROCHLORIDE]: 13%
O=C1NCN(c2ccccc2)C12CCN(CCCOc1ccc(F)cc1)CC2 [SPIRAMIDE]: 19%
Cc1nc(Nc2n[nH]c3c2CN(C(=O)N[C@H](CN(C)C)c2ccccc2)C3(C)C)c2sccc2n1: 52%
C=CC(=O)Nc1cc2c(Nc3ccc(F)c(Cl)c3)ncnc2cc1OCCCN1CCOCC1.Cl.Cl [CANERTINIB DIHYDROCHLORIDE]: 75%
Cc1c(-c2ccc(O)cc2)n(Cc2ccc(OCCN3CCCCCC3)cc2)c2ccc(O)cc12: 9%
CC(C)(O)CNc1ncc(-c2ccnc(Nc3ccnc(Cl)c3)n2)c(CC2CC2)n1: 3%
Cn1cc(-c2[nH]c3cc(NC(=O)[C@H](N)C4CCCCC4)cc4c3c2C=NNC4=O)cn1: 13%
CN(C)C(=O)/C(C#N)=C/c1ccc(-c2nc3cnc4[nH]ccc4c3n2C2CCCCC2)o1: 39%
CN(C)CC#Cc1ccc(OCCCc2sc(N3CCc4cccc(C(=O)Nc5nc6ccccc6s5)c4C3)nc2C(=O)O)c(F)c1: 43%

Memo: `C=CC(=O)Nc1ccc2ncnc(Nc3ccc(OCc4cccc(F)c4)c(Cl)c3)c2c1.Cc1ccc(S(=O)(=O)O)cc1` , reported Population Healthy Nuclei (%): 41%

Memo: `Cc1[nH]c(/C=C2\C(=O)Nc3ccc(S(=O)(=O)N(C)c4cccc(Cl)c4)cc32)c(C)c1C(=O)N1CCN(C)CC1` , reported Population Healthy Nuclei (%): 27%

* * *

System: U2OS
ASSAY_METHOD_TEXT: Multiplex assay against U2OS
Type: toxicity, cell-based
TEST_SETTINGS: human, 24 h, 10 µM, compound concentration 10 uM, replicate 2
Think of 90% as a floor: if Population Normal (%) stands on it or above, it is class 1; beneath it, class 0.

CC(C)NCC(O)COc1ccc(CCOCC2CC2)cc1.Cl (configuration not stated) [BETAXOLOL HYDROCHLORIDE]: class 1
Cn1cc(-c2[nH]c3cc(NC(=O)[C@H](N)C4CCCCC4)cc4c3c2C=NNC4=O)cn1: class 0
CC(C)(O)CNc1ncc(-c2ccnc(Nc3ccnc(Cl)c3)n2)c(CC2CC2)n1: class 0
O=C1NCN(c2ccccc2)C12CCN(CCCOc1ccc(F)cc1)CC2 [SPIRAMIDE]: class 1
CN(C)C(=O)N[C@H]1CC[C@H](CCN2CCN(c3cccc(Cl)c3Cl)CC2)CC1.Cl [CARIPRAZINE HYDROCHLORIDE]: class 1

Would you say CN1CCCC(n2nc(Cc3ccc(Cl)cc3)c3ccccc3c2=O)CC1.Cl (configuration not stated) [AZELASTINE HYDROCHLORIDE] shows Population Normal (%) at minimum 90%? class 1

Would you say `c1cn2cc(-c3ccc4cn[nH]c4c3)nc(Nc3ccc(N4CCOCC4)cc3)c2n1` shows Population Normal (%) at minimum 90%? class 0

Would you say `Cc1nc(-c2cn3c(n2)-c2ccc(-c4cnn(C(C)(C)C(N)=O)c4)cc2OCC3)n(C(C)C)n1` shows Population Normal (%) at minimum 90%? class 1

Would you say Cl.N#Cc1ccc2[nH]cc(CCCCN3CCN(c4ccc5oc(C(N)=O)cc5c4)CC3)c2c1 [VILAZODONE HYDROCHLORIDE] shows Population Normal (%) at minimum 90%? class 0

Would you say `OC1(c2ccc(Cl)cc2)CCN(Cc2c[nH]c3ccccc23)CC1` shows Population Normal (%) at minimum 90%? class 1

Would you say `CN1CCN(c2ccc(OC(F)(F)F)c(Nc3ncc4c(n3)-c3c(c(C(N)=O)nn3CCO)CC4)c2)CC1` shows Population Normal (%) at minimum 90%? class 0

Would you say `CCN(CC)CCCCNc1ncc2cc(-c3cc(OC)cc(OC)c3)c(NC(=O)NC(C)(C)C)nc2n1` shows Population Normal (%) at minimum 90%? class 0
